- Tested on: U87MG pLVX-IDH2 R140Q-neo cells
- EXPERIMENT_DESCRIPTION: U87MG pLVX-IDH2 R140Q-neo cell based assay, 2-HG in media by LC-MS at 48 hours
- CONDITIONS: Homo sapiens, U-87 MG
pIC50: −log10 of the molar value.
Readings of pIC50 for the listed molecules

Sample answers from the record:
INSERT INTO results (chem_smiles, target, result) VALUES
  ('CC(C)(O)CNc1nc(Nc2cncc(F)c2)nc(-c2cccc(C(F)(F)F)n2)n1', 'U87MG pLVX-IDH2 R140Q-neo cells', '6.00 to 7.00'),
  ('CC(C)Nc1nc(Nc2cncc(F)c2)nc(-c2ccccc2F)n1', 'U87MG pLVX-IDH2 R140Q-neo cells', '> 7.00');

Now consider the entry below.
Specify reported pIC50 for the molecule shown: COc1ccc(F)c(-c2nc(Nc3cc(F)cc(F)c3)nc(NC(C)C)n2)n1
> 7.00

The reported numbers originate from patent US9512107B2.
